target: CK2α2β2 (Homo sapiens); construct: GST (N); made in house; host or cells: E. coli BL21(DE3)trxB; experiment: CK2 activity, phosphorylation of yeast P2B protein substrate, CK2α2β2 holoenzyme; format: biochemical; conditions: 10 μM yeast P2B as substrate, 20 µM ATP
Sequence (P68400 whole entry): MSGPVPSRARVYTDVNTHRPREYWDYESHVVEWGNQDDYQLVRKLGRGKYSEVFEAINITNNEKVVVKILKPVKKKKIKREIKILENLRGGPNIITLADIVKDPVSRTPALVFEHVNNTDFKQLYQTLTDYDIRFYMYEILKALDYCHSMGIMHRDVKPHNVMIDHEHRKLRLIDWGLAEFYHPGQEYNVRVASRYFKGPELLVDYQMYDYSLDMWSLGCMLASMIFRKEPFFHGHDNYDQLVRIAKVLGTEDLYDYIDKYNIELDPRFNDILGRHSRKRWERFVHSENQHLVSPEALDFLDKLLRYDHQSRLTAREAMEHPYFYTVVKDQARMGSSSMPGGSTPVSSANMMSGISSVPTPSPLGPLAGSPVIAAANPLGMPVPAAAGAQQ
Sequence (P67870 whole entry partner): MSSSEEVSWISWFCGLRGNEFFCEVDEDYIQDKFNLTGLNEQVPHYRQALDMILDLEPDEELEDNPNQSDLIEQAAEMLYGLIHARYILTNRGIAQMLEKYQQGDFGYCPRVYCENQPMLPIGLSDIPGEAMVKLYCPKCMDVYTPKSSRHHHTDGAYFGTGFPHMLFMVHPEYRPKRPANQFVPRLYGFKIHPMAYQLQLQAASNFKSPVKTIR
outcomeMeasure: IC50 (µM)

>  <compound>
O=c1c(O[C@@H]2O[C@H](CO)[C@@H](O)[C@H](O)[C@H]2O)c(-c2ccc(O)c(O)c2)oc2cc(O)cc(O)c12 [Compound 8a, quercetin 3-O-glucoside]

>  <studySystem>
CK2α2β2 (Homo sapiens)

>  <experimentalResult>
24.5

$$$$

[1] COc1c(-c2ccc(O)cc2)oc2cc(OC3OC(C(=O)O)C(O)C(O)C3O)cc(O)c2c1=O (stereo not drawn)
[2] COC(=O)C1OC(Oc2cc(O)c3c(=O)cc(-c4ccc(O)cc4)oc3c2)C(O)C(O)C1O (stereo not drawn)
Endpoint returns the identifier whose IC50 is numerically larger, either 1 or 2 . // return label of chosen record
2
